Value source: patent US20180057505A1

ASSAYED TARGET: PAR2 (HT-29 cells) (Homo sapiens, UniProt P55085)
Construct: host or cells: HT-29
Sequence (P55085 26-397): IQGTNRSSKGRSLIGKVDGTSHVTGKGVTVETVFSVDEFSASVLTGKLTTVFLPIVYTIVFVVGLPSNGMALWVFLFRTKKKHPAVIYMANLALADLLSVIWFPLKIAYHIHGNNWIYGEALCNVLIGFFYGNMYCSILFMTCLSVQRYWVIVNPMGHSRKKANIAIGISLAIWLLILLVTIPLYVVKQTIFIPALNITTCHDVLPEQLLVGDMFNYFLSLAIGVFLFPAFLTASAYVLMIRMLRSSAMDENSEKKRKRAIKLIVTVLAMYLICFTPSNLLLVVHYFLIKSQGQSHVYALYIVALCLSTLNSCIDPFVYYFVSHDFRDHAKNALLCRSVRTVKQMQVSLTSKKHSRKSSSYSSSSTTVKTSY
EXPERIMENT: Ca FLIPR TETRA assay, ANTAGONIST mode, activator 3.1 U/mL trypsin
Format: cell-based
SETUP CONDITIONS: HT-29 cells; activator 3.1 U/mL trypsin; Method A: maximal concentration of antagonist 0.1, 1 or 2 μM
Reported IC50 values for a set of compounds
MEASUREMENT LABEL: IC50 (nM)

>>> result_value("Cc1cc(N2CCN(C(=O)c3cc4nc(-c5ccc(Cl)c(F)c5)cc(C(C)(C)C)c4o3)C(C)(C)C2)ncc1C(=O)O [Example I-400]")
0.4
>>> result_value("CC(C)(C)c1cc(C2CCC(Cl)(Cl)CC2)nc2cc(C(=O)N3CCN(C(=O)[C@H]4C[C@@](C)(O)C4)CC3(C)C)oc12 [Example I-305]")
3
>>> result_value("CC(C)(C)c1cc(-c2ccc(Cl)c(F)c2)nc2cc(C(=O)N3CCN(c4ncccn4)C(=O)C3(C)C)oc12 [Example I-361]")
4.6
>>> result_value("CC(C)(C)c1cc(-c2ccc(Cl)cc2)nc2cc(C(=O)N3CCN(C(=O)[C@@H]4CCS(=O)(=O)N4)CC3(C)C)oc12 [Example I-474]")
53
>>> result_value("Cc1ccc(N2CCN(C(=O)c3cc4nc(-c5ccc(Cl)cc5)cc(C(C)(C)C)c4o3)C(C)(C)C2)nc1-c1nnn[nH]1 [Example I-537]")
0.4
>>> result_value("CC(C)(C)c1cc(N2CC3(C2)CC(F)(F)C3)nc2cc(C(=O)N3CCN(C(=O)[C@H]4C[C@](C)(O)C4)CC3(C)C)oc12 [Example I-441]")
130
>>> result_value("CC(C)(C)c1cc(-c2ccc(Cl)c(F)c2)nc2cc(C(=O)N3CCN(c4ncncc4C(=O)O)CC3(C)C)oc12 [Example I-519]")
26
>>> result_value("CC(C)(C)c1cc(-c2ccc(Cl)c(F)c2)nc2cc(C(=O)N3CCC(CC(=O)NC#N)CC3(C)C)oc12 (stereo not shown) [Example I-432]")
0.3
>>> result_value("CC(C)(C)c1cc(-c2ccc(Cl)cc2)nc2cc(C(=O)N3CCN(c4ncc(F)cn4)CC3(C)C)oc12 [Example I-370]")
17
>>> result_value("CC(C)(C)c1cc(-c2ccc(Cl)cc2)nc2cc(C(=O)N3CCN(c4ncc(C(=O)O)cn4)C(=O)C3(C)C)oc12 [Example I-369]")
19
>>> result_value("CC1(C)CCC(c2cc(C(C)(C)C)c3oc(C(=O)N4CCN(c5cncc(C(=O)O)n5)CC4(C)C)cc3n2)CC1 [Example I-464]")
0.9
>>> result_value("Cc1cnc(N2CCN(C(=O)c3cc4nc(-c5ccc(Cl)c(F)c5)cc(C(C)(C)C)c4o3)C(C)(C)C2)c(C(=O)O)c1 [Example I-492]")
7.3
>>> result_value("CC1(C)CCC(c2cc(C(C)(C)C)c3oc(C(=O)N4CCN(C(=O)CCC(=O)O)CC4(C)C)cc3n2)CC1 [Example I-418]")
5.6
